Would you kindly list viability, T/C for each of these compounds?
Test system: 242566-281-R-J2-PDC complex spheroid viability;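 also: spheroids exposed to compound for 7 days before readout; 100% = DMSO vehicle control wells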
Experiment: Anticancer human tumor 242566-281-R-J2-PDC patient-derived pancreatic carcinoma cell line growth inhibition [RAS]
Details: second compound 0.0949 µM; first compound 0.00949 µM; hits give low values
Source text: RAS pathway inhibitors in Combinations in Complex Spheroids A high-throughput screen of multi-cell type tumor spheroids was designed to identify active combinations of RAS pathway inhibitors and targeted small molecules. Complex spheroids include a stromal component modeled by human endothelial cells (HUVEC) and fibroblasts modeled by human mesenchymal stem cells (MSCs). […] Compounds. […] If the clinical Cmax for an agent had not been determined, the highest concentration tested was 10 microM. […]
Report the figure in % without appending any unit label.

Name the recorded viability, T/C of the item CC1(C)CCC(Nc2ncc(C(F)(F)F)c(-c3c[nH]c4c(P(C)(C)=O)c(C#N)ccc34)n2)CN1 (centres undefined) + CCn1c(-c2cccnc2C(C)OC)c2c3cc(ccc31)N1CCOC(CC(NC(=O)C(C(C)C)N(C)C(=O)C3(F)CCN(C(=O)C#CC(C)(C)N(C)C)CC3)C(=O)N3CCCC(N3)C(=O)OCC(C)(C)C2)C1 in your answer.
90.3

Give the reported value of viability, T/C for this record: CCc1c2c(nc3ccc(O)cc13)-c1cc3c(c(=O)n1C2)COC(=O)[C@]3(O)CC + CCn1c(-c2cc(N3CCN(C)CC3)cnc2C(C)OC)c2c3cc(ccc31)-c1csc(n1)CC(NC(=O)C1CC1C)C(=O)N1CCCC(N1)C(=O)OCC(C)(C)C2
21.8

Quick one: give measured viability, T/C for CCc1c2c(nc3ccc(O)cc13)-c1cc3c(c(=O)n1C2)COC(=O)[C@]3(O)CC + CCn1c(-c2cccnc2C(C)OC)c2c3cc(ccc31)N1CCOC(CC(NC(=O)C(C(C)C)N(C)C(=O)C3(F)CCN(C(=O)C#CC(C)(C)N(C)C)CC3)C(=O)N3CCCC(N3)C(=O)OCC(C)(C)C2)C1
68

Please give measured viability, T/C of the following entry: CC1(C)CCC(Nc2ncc(C(F)(F)F)c(-c3c[nH]c4c(P(C)(C)=O)c(C#N)ccc34)n2)CN1 (centres undefined) + CCn1c(-c2cc(N3CCN(C)CC3)cnc2C(C)OC)c2c3cc(ccc31)-c1csc(n1)CC(NC(=O)C1CC1C)C(=O)N1CCCC(N1)C(=O)OCC(C)(C)C2
21.6
